Test system: RXF 393 renal
Assay: NCI tumour cell line growth inhibition, 48 h; in the data active = GI50 below about 0.43 µM; inactive = the rest
Classes used: 1 (active), -1 (inactive)

compound: O=C(/C=C/c1cccnc1)NCCCCC1CCN(C(=O)c2ccccc2)CC1
class: -1

compound: O=S(=O)([O-])c1cccc2cccc(N=Cc3ccccc3[O-])c12.O=S(=O)([O-])c1cccc2cccc(N=Cc3ccccc3[O-])c12.[O]=[U]=[O]
class: -1

compound: COP(=O)(OC)C(NC(c1ccccc1)c1ccccc1)c1ccc2c(c1)OCO2 (stereo not given)
class: -1

compound: C=C1C(=O)O[C@H]2[C@H]1CC/C(COC(=O)/C=C/C(=O)OC/C1=C/CC[C@@]3(C)O[C@H]3[C@H]3OC(=O)C(=C)[C@@H]3CC1)=C\CC[C@@]1(C)O[C@@H]21
class: 1

compound: CC(CN(CP(=O)([O-])[O-])CP(=O)([O-])[O-])N(CP(=O)([O-])[O-])CP(=O)([O-])[O-].N.N.[Pt+2] (stereo not given)
class: -1

compound: O=c1cccc(C#CC#C[C@H]2O[C@@H]2CO)o1
class: -1

compound: C(=N\Nc1ccccn1)/c1ccccn1
class: 1

compound: C1CC[N-]CC1.C1CC[N-]CC1.C1CC[N-]CC1.C1CC[N-]CC1.[Cl][Rh][Cl]
class: -1

compound: C[C@@H]1C=C(CCCCCCCCCCC[C@H](O)[C@@H]2CCC(=O)O2)C(=O)O1
class: -1

compound: Cc1ccc(C(=O)Nc2ccc(CN3CCN(C)CC3)c(C(F)(F)F)c2)cc1C#Cc1cnc(N)cc1C#N
class: 1

* * *

TGI values by entry
Tested on: TK-10 renal
Assay: NCI tumour cell line growth inhibition, 48 h
Where a SMILES comes first, the peptide text is derived from it.

compound: CC(=O)NC1C(OCc2ccccc2)OC(CO)C(O)C1OCC(=O)N[C@@H](C)C(=O)N[C@H](CCC(=O)NCCCCNc1c2ccccc2nc2cccc([N+](=O)[O-])c12)C(N)=O (some centres undefined)
study_system: TK-10 renal
TGI: 16.7 µM
//
compound: Cc1ccc(Cl)c2c(=O)cc(-c3ccccc3)[nH]c12
study_system: TK-10 renal
TGI: > 100 µM
//
compound: O=c1cc(C(F)(F)F)c2cc3c(cc2o1)NCCC3
study_system: TK-10 renal
TGI: > 100 µM
//
compound: O=C1CCc2cc3c(cc21)C(C(=O)O)CC3 (centres undefined)
study_system: TK-10 renal
TGI: > 100 µM
//
compound: O=C(/C=C/c1cccnc1)NCCCCC1CCN(C(=O)c2ccccc2)CC1
study_system: TK-10 renal
TGI: > 100 µM
//
compound: CCOc1ccccc1N=NC1C(=O)N(C(=O)CC(=O)Nc2ccccc2OC)N=C1C (centres undefined)
study_system: TK-10 renal
TGI: > 100 µM
//
compound: COC(C[C@H]1CCCC[C@]1(O)/C(=C\CO[Si](C(C)C)(C(C)C)C(C)C)Sc1ccccc1)OC
study_system: TK-10 renal
TGI: > 100 µM
//
compound: O=C(O)CNc1c2ccccc2nc2ccccc12
study_system: TK-10 renal
TGI: > 100 µM
//
compound: COC(=O)C1=C(C)N(NC(N)=O)C2(N)N(NC(N)=O)C(C)=C(C(=O)OC)C12C(=O)OC (centres undefined)
study_system: TK-10 renal
TGI: > 100 µM
//
compound: Cn1cnc(/C=C/C#N)c1
study_system: TK-10 renal
TGI: > 100 µM
//
compound: CC(=O)Nc1ccc(/C=C/[N+](=O)[O-])cc1
study_system: TK-10 renal
TGI: 6.89 µM
//
compound: Cc1ccc(C(=O)NN=C(/N=N/c2cccc(C)c2)c2ccc(N(C)C)cc2)cc1
study_system: TK-10 renal
TGI: > 100 µM
//
compound: COc1ccc(/C=N/N=C(\N)NO)cc1OC
study_system: TK-10 renal
TGI: > 100 µM
//
compound: Oc1ccc(O)c(Sc2nnc(CCCCCCCCc3nnc(Sc4cc(O)ccc4O)o3)o2)c1
study_system: TK-10 renal
TGI: > 100 µM
//
compound: O=C1C(Cl)C(c2cccc(O)c2)N1n1cnc2ccccc2c1=O (centres undefined)
study_system: TK-10 renal
TGI: > 100 µM
//
compound: Cc1cccc(=O)c([O-])c1.Cc1cccc(=O)c([O-])c1.Cc1cccc(=O)c([O-])c1.Cc1cccc(=O)c([O-])c1.[Th+4]
study_system: TK-10 renal
TGI: > 100 µM
//
compound: CCC(C)C(NC(=O)C1CCCN1)C(=O)NC(C(=O)NCC(=O)NC(CC(N)=O)C(=O)NC(CC(C)C)C(=O)NC(CC(C)C)C(=O)NC(CCCCN)C(N)=O)C(C)C (centres undefined) (H-PIVGNLLK-NH2; configuration not given here)
study_system: TK-10 renal
TGI: > 75 µM
//
compound: COC(=O)c1c(C)cccc1C1CN=NC12Cc1cccc(C)c1C2=O (centres undefined)
study_system: TK-10 renal
TGI: > 100 µM
//
compound: Nc1ccccc1C#C/C=C\C#Cc1ccccc1C(F)(F)F
study_system: TK-10 renal
TGI: 27.9 µM
